Reference for the values: patent US20240343706A1

# Measured On: CRBN-DDB1 protein complex (Homo sapiens)
# Method Notes: Fluorescence polarization (FP) assay, displacement of Cy5-labelled thalidomide
# Condition Notes: 25 nM CRBN-DDB1, 5 nM Cy5-labelled thalidomide, read-out: CRBN binding Ki
# Method: CRBN-DDB1 protein complex was mixed with Cy5-labelled thalidomide and a compound to be tested (the “test compound”). […] The test solution was added to a 384-well assay plate. The plate was spun-down (1 min, 1000 rpm, 22° C.) and then shaken using a VibroTurbulator for 10 min at room temperature (20-25° C.), with the frequency set to level 3. The assay plate with protein and the tracer was incubated for 60 min at room temperature (20-25° C.) prior to read-out with a plate reader. […]
pKi: −log10 of the molar value.
Listing: pKi of selected compounds

Req: Give me measured pKi, please, for this compound: O=C1CCC(NC(=O)c2cncc3[nH]cnc23)C(=O)N1 (centres unmarked) [Compound 10]
Resp: 5.00 to 6.00

Req: Give me measured pKi, please, for this compound: O=C1CCC(NC(=O)c2cccc3nnsc23)C(=O)N1 (centres unmarked) [Compound 58]
Resp: 4.30 to 5.00

Req: Give me measured pKi, please, for this compound: O=C1CCC(NC(=O)c2cccc3c2NC(=O)C3)C(=O)N1 (centres unmarked) [Compound 1]
Resp: 4.30 to 5.00

Req: Give me measured pKi, please, for this compound: O=C1CCC(NC(=O)c2cccc3c(Br)n[nH]c23)C(=O)N1 (centres unmarked) [Compound 42]
Resp: 4.30 to 5.00

Req: Give me measured pKi, please, for this compound: Cn1cnc2c(C(=O)NC3CCC(=O)NC3=O)cccc21 (centres unmarked) [Compound 4]
Resp: 5.00 to 6.00

---

Listing: Ki of selected molecules
# Measured On: CRBN-DDB1 protein complex (Homo sapiens, UniProt Q96SW2)
# Sequence (Q96SW2 whole entry): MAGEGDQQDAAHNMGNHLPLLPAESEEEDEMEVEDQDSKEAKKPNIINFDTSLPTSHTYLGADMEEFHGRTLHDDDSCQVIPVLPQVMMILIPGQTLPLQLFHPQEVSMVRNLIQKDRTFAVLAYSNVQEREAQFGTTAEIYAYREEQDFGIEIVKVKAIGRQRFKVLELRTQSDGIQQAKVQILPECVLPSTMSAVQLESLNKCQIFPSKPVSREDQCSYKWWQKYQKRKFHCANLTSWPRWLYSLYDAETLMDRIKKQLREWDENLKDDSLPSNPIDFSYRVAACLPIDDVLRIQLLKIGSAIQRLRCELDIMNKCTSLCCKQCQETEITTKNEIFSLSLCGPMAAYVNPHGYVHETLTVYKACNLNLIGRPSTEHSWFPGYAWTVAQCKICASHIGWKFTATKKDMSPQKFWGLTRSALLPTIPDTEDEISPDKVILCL
# Sequence (Q16531 whole entry partner): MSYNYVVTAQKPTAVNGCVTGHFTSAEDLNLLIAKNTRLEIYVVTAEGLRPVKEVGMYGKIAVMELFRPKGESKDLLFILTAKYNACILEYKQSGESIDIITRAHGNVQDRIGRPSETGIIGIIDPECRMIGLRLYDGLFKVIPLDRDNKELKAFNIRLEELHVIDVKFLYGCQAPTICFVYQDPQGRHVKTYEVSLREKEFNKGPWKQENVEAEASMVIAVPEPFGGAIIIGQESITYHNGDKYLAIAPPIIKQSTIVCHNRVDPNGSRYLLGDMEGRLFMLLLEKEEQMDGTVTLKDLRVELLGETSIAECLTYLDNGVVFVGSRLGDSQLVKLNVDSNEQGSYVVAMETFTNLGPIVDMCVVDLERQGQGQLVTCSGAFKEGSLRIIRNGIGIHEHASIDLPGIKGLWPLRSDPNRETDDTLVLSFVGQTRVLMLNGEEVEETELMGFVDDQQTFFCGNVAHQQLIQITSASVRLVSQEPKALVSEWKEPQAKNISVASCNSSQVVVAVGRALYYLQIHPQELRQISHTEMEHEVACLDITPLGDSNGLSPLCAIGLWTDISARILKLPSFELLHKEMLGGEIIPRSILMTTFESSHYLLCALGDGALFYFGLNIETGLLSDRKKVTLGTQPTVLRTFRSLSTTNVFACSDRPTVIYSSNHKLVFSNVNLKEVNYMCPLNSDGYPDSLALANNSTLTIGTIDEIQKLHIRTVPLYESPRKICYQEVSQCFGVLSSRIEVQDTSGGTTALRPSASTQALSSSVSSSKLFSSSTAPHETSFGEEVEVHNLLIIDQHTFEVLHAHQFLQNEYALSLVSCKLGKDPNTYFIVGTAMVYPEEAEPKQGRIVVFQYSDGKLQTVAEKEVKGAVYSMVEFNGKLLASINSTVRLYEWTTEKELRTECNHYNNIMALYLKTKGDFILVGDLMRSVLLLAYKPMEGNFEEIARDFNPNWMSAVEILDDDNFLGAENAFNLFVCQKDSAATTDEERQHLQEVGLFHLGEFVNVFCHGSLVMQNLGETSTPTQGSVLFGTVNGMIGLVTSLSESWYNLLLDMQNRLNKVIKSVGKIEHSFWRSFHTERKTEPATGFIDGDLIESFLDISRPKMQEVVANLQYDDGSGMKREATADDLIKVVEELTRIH
# Method Notes: Fluorescence polarization (FP) assay, displacement of Cy5-labelled thalidomide
# Condition Notes: 25 nM CRBN-DDB1, 5 nM Cy5-labelled thalidomide, read-out: CRBN binding Ki

>>> result("O=C1CCC(NC(=O)c2cccc3[nH]c(Cl)nc23)C(=O)N1 (centres unmarked)")
"< 1 µM"
>>> result("O=C1CCC(NC(=O)c2cccc3[nH]c(C(F)(F)F)nc23)C(=O)N1 (centres unmarked)")
"< 1 µM"

Req: Give me measured Ki, please, for this molecule: O=C1CCC(NC(=O)c2ccnc3cc[nH]c23)C(=O)N1 (centres unmarked)
Resp: 10 to 50 µM

Req: Give me measured Ki, please, for this molecule: O=C1CCC(NC(=O)c2cc(F)cc3[nH]cnc23)C(=O)N1 (centres unmarked)
Resp: 1 to 10 µM

Req: Give me measured Ki, please, for this molecule: O=C1CCC(NC(=O)c2ccnc3[nH]cnc23)C(=O)N1 (centres unmarked)
Resp: 1 to 10 µM

---

Listing: pKi of selected molecules
# Measured On: CRBN-DDB1 protein complex (Homo sapiens, UniProt Q96SW2)
# Method Notes: Fluorescence polarization (FP) assay, displacement of Cy5-labelled thalidomide
# Condition Notes: 25 nM CRBN-DDB1, 5 nM Cy5-labelled thalidomide, read-out: CRBN binding Ki
pKi: −log10 of the molar value.

>>> result("Cc1sc2c(c1C)C(c1ccc(Cl)cc1)=N[C@@H](CC(=O)NCCCCCCCCNC(=O)Cn1c(C)nc3c(C(=O)NC4CCC(=O)NC4=O)cccc31)c1nnc(C)n1-2 (stereo partly shown)")
"> 6.00"
>>> result("Cc1nc2c(C(=O)NC3CCC(=O)NC3=O)cncc2[nH]1 (stereo not shown)")
"5.00 to 6.00"
>>> result("Cc1nc2c(C(=O)NC3CCC(=O)NC3=O)ccnc2[nH]1 (stereo not shown)")
"5.00 to 6.00"

# context switch: different molecule, same pKi
Req: Give me measured pKi, please, for this molecule: O=C1CCC(NC(=O)c2cccc3[nH]c(C(F)F)nc23)C(=O)N1 (stereo not shown)
Resp: 5.00 to 6.00
